Reference source: the NIST ThermoML archive (doi:10.1016/j.tca.2006.04.011)

condition.details: Crystal 1; DTA
Give Triple point temperature for every item shown.
Write the number in K without appending the unit.

Quick one: Triple point temperature of Clc1cc2c(Cl)cc(Cl)c(Cl)c2cc1Cl ?
404.25

What do you get for Clc1c(Cl)c(Cl)c2ccccc2c1Cl ?
470.75

What do you get for Clc1cc(Cl)c2c(Cl)c(Cl)cc(Cl)c2c1 ?
428.95

What do you get for Clc1cc2c(Cl)c(Cl)c(Cl)c(Cl)c2c(Cl)c1Cl ?
455.95

What do you get for Clc1cc2c(Cl)ccc(Cl)c2c(Cl)c1Cl ?
453.25

* * *

test.protocol: Molar enthalpy of transition or fusion
condition.details: Crystal 1; DSC
quantity: Molar enthalpy of transition or fusion (kJ/mol)
Write the number in kJ/mol without appending the unit.

Quick one: Molar enthalpy of transition or fusion of Clc1cc(Cl)c2c(Cl)c(Cl)cc(Cl)c2c1 ?
19.8

What do you get for Clc1cc2cc(Cl)c(Cl)c(Cl)c2cc1Cl ?
22.9

What do you get for Clc1cc(Cl)c2c(Cl)c(Cl)ccc2c1Cl ?
8.41

What do you get for Clc1cc2c(Cl)cc(Cl)c(Cl)c2cc1Cl ?
22.6

What do you get for Clc1cc(Cl)c2cc(Cl)c(Cl)c(Cl)c2c1 ?
25.7

What do you get for Clc1cc2ccc(Cl)c(Cl)c2c(Cl)c1Cl ?
17.6

What do you get for Clc1c(Cl)c(Cl)c2ccccc2c1Cl ?
11.5

What do you get for Clc1cc(Cl)c2c(Cl)c(Cl)cc(Cl)c2c1Cl ?
28.9

* * *

test.protocol: Molar enthalpy of transition or fusion
condition.details: Crystal 1; DSC
Give Molar enthalpy of transition or fusion for every item shown.
Write the number in kcal/mol without appending the unit.

Quick one: Molar enthalpy of transition or fusion of Clc1ccc2ccc(Cl)c(Cl)c2c1Cl ?
3.49

What do you get for Clc1cc2c(Cl)ccc(Cl)c2c(Cl)c1Cl ?
2.02

What do you get for Clc1cc(Cl)c2cc(Cl)cc(Cl)c2c1 ?
6.49

What do you get for Clc1cc2c(Cl)c(Cl)c(Cl)c(Cl)c2c(Cl)c1Cl ?
2.09

What do you get for Clc1cc2ccccc2c(Cl)c1Cl ?
4.41

* * *

condition.details: Crystal 2; DTA
quantity: Triple point temperature (K)
Write the number in K without appending the unit.

Quick one: Triple point temperature of Clc1cc(Cl)c2c(Cl)c(Cl)ccc2c1Cl ?
404.15

What do you get for Clc1cc2c(Cl)ccc(Cl)c2c(Cl)c1Cl ?
443.35

What do you get for Clc1cc2c(Cl)c(Cl)c(Cl)c(Cl)c2c(Cl)c1Cl ?
454.45

What do you get for Clc1c(Cl)c(Cl)c2ccccc2c1Cl ?
454.25

* * *

Give Molar enthalpy of transition or fusion for every item shown.
test.protocol: Molar enthalpy of transition or fusion
condition.details: Crystal 2; DSC

Quick one: Molar enthalpy of transition or fusion of Clc1c(Cl)c(Cl)c2ccccc2c1Cl ?
0.318 kcal/mol

What do you get for Clc1cc2c(Cl)c(Cl)c(Cl)c(Cl)c2c(Cl)c1Cl ?
2.04 kcal/mol

What do you get for Clc1cc(Cl)c2c(Cl)c(Cl)ccc2c1Cl ?
3.74 kcal/mol

What do you get for Clc1cc2c(Cl)ccc(Cl)c2c(Cl)c1Cl ?
0.22 kcal/mol

* * *

condition.details: Crystal 1; DTA
Give Triple point temperature for every item shown.
Write the number in K without appending the unit.

Quick one: Triple point temperature of Clc1ccc2ccc(Cl)c(Cl)c2c1Cl [naphthalene, 1,2,7,8-tetrachloro-] ?
401.25

What do you get for Clc1cc2ccc(Cl)c(Cl)c2c(Cl)c1Cl [naphthalene, 1,2,3,7,8-pentachloro-] ?
381.55

What do you get for Clc1cc(Cl)c2c(Cl)c(Cl)ccc2c1Cl [1,2,4,5,6-pentachloronaphthalene] ?
412.65

What do you get for Clc1cc(Cl)c2cc(Cl)cc(Cl)c2c1 [1,3,5,7-tetrachloronaphthalene] ?
452.95

What do you get for Clc1cc2cc(Cl)c(Cl)c(Cl)c2cc1Cl [naphthalene, 1,2,3,6,7-pentachloro-] ?
416.55

What do you get for Clc1cc2ccccc2c(Cl)c1Cl [naphthalene, 1,2,3-trichloro-] ?
354.65

What do you get for Clc1cc(Cl)c2c(Cl)c(Cl)cc(Cl)c2c1Cl [1,2,4,5,6,8-hexachloronaphthalene] ?
449.35

What do you get for Clc1cc(Cl)c2cc(Cl)c(Cl)c(Cl)c2c1 [1,2,3,5,7-pentachloronaphthalene] ?
444.85
